Cited source: patent US9840498B2

Give measured pIC50 for each item. Keep answers brief.
Formally, pIC50 is defined as -log10 of the concentration c, with c in mol/L.

UniProtKB P42336 data for CCOc1ncc(-c2cccc3nc([C@@H]4CCCN4c4nc(N)nc(C)c4C#N)n(-c4ccccc4)c(=O)c23)cn1 ; its pIC50: 6.31

UniProtKB P42336 data for CO[C@H]1C[C@@H](c2nc3cccc(-c4cnn(C)c4)c3c(=O)n2-c2ccccc2)N(c2nc(N)nc(C)c2C#N)C1 ; its pIC50: 5.89

UniProtKB P42336 data for Cn1cc(-c2cccc3nc([C@@H]4CCCN4c4ncnc(N)c4C#N)n(-c4ccccc4)c(=O)c23)cn1 ; its pIC50: 5.89

UniProtKB P42336 data for Cc1nc(N)nc(N2CCC[C@H]2c2nc3cccc(-c4cnn(C)c4)c3c(=O)n2-c2ccccc2)c1C#N ; its pIC50: 6.59
